TEST SYSTEM: PD-1/PD-L1 interaction (Homo sapiens, UniProt Q9NZQ7)
Sequence (Q9NZQ7 19-290): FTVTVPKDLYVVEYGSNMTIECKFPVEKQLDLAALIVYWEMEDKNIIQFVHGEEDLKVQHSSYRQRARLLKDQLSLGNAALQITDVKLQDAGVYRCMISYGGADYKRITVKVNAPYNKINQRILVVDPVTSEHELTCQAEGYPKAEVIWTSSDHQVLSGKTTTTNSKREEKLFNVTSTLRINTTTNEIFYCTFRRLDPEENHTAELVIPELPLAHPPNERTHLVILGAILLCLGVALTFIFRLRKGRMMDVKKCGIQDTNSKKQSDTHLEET
EXPERIMENT NOTES: PD-1/PD-L1 blockage cell-based bioassay (Jurkat NFAT luciferase / CHO-PDL1 co-culture)
ASSAY CONDITIONS: Jurkat NFAT cells co-cultured with CHO-PDL1 cells, 6 h, luminescence
Please provide measured IC50 for the entries that follow.

Guide cases for IC50, answers given:
>>> df
                                   compound  reported_result
0  COc1cc(-n2ncc3c(-c4cccc(-c5ccc(CN[C@H]6C[C@@H](O)C6)c(OC)n5)c4Cl)cccc32)cc(OC)c1CN1CC(C)(O)C1 [Example 102]         < 0.2 µM
1  CCOC(=O)[C@@H](CO)NCc1c(OC)cc(-n2ncc3c(-c4cccc(-c5ccc(CNC[C@@H]6CCC(=O)N6)c(OC)n5)c4Cl)cccc32)cc1OC [Example 147]    0.201 to 2 µM
2  COc1cc(-n2ncc3c(-c4cccc(-c5ccc(CN6CC7(CNC(=O)C7)C6)c(OC)n5)c4Cl)cccc32)cc(OC)c1CNC[C@@H](C)O [Example 112]         < 0.2 µM
3  COc1cc(-n2ncc3c(-c4cccc(-c5ccc(CN[C@H]6C[C@@H](O)C6)c(OC)n5)c4Cl)cccc32)cc(OC)c1CN[C@H]1C[C@@H](O)C1 [Example 101]         < 0.2 µM
4  COc1cc(-n2ncc3c(-c4cccc(-c5ccc(CN6CC7(CNC(=O)C7)C6)c(OC)n5)c4Cl)cccc32)cc(OC)c1CN1CC(C)(C(N)=O)C1 [Example 103]         < 0.2 µM

query: Return IC50 (reported value) for this compound: COc1cc(-n2ncc3c(-c4cccc(-c5ccc(CN6CC7(CNC(=O)C7)C6)c(OC)n5)c4Cl)cccc32)ncc1CNC[C@@H](C)O [Example 110]
result: 0.201 to 2 µM
